# Tested on: THRa homodimer (NR concentration 90 nM)
# method: PBM binding z-score (relative to random genomic background probes); higher = stronger binding; sequences stand for … in GC…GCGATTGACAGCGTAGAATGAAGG
endpoint_name: PBM binding z-score

item_sequence	endpoint_name	experimental_value
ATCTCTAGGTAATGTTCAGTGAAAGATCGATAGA	PBM binding z-score	0.382
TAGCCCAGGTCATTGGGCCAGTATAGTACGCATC	PBM binding z-score	1.65
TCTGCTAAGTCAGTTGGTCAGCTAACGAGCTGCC	PBM binding z-score	-0.977
CCTACTGGGCTACGAAAGGTCATTGATTCAGTGA	PBM binding z-score	0.738
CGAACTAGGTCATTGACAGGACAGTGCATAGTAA	PBM binding z-score	0.816
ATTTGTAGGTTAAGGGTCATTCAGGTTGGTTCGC	PBM binding z-score	2.55
TAGCCTAGGTCGTGGGCCAGTATACCACGCGAAC	PBM binding z-score	-0.254
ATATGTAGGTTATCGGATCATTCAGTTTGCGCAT	PBM binding z-score	0.624
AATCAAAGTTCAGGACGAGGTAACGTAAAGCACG	PBM binding z-score	1.58
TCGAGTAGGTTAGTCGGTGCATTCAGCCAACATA	PBM binding z-score	-0.377
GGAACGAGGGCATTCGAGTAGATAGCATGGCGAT	PBM binding z-score	-0.662
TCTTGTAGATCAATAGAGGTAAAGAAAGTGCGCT	PBM binding z-score	-0.539

* * *

# Tested on: PXR homodimer (NR concentration 270 nM)
# method: PBM binding z-score (relative to random genomic background probes); higher = stronger binding; sequences stand for … in GC…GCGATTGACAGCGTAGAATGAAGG
A collection of sequences and their measured PBM binding z-score

item_sequence	PBM binding z-score
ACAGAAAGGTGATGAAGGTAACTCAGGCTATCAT	0.0962
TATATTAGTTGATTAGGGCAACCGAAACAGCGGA	0.89
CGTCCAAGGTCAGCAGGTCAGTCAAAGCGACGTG	0.514
CGTCCAAGGTCAGGAGGTCAGTGAAAGCGACGTG	1.1
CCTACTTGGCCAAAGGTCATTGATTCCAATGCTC	2.07
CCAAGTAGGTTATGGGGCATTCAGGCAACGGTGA	-0.101
CCTTACGGGTCACTCCAGGTTATGGCATCGGAGT	0.182
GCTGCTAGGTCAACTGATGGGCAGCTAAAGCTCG	-0.949
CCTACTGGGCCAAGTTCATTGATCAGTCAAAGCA	3.64
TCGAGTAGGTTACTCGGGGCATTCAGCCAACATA	-0.427
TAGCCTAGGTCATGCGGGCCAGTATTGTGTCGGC	-0.847
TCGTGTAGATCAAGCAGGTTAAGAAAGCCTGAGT	0.251

* * *

A collection of sequences and their measured PBM binding z-score
# Test system: VDR homodimer (NR concentration 270 nM)
# method: PBM binding z-score (relative to random genomic background probes); higher = stronger binding; sequences stand for … in GC…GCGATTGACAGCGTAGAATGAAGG
endpoint_name: PBM binding z-score

item_sequence	experimental_value
CTCGAAAGGTAGTGCTCAGGTGAGTATACCAAAC	-0.438
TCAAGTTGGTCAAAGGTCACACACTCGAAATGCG	2.4
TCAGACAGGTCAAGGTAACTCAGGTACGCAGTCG	0.989
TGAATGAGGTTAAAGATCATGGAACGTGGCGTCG	0.314
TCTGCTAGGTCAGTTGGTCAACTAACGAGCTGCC	-0.774
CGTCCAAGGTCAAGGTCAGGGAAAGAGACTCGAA	3.37

* * *

# System: PPARg:RXRa IVT, anti-PPARg (NR concentration 270 nM, RXRa partner concentration 90 nM)
# method: PBM binding z-score (relative to random genomic background probes); higher = stronger binding; sequences stand for … in GC…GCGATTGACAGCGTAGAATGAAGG
A collection of sequences and their measured PBM binding z-score

item_sequence	PBM binding z-score
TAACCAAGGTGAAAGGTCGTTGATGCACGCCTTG	4.83
GTACCAAGGTGAATAGGTCGATGATGAGTAGGCG	2.61
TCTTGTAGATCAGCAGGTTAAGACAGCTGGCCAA	0.417
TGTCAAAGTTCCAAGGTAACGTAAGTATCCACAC	1.18
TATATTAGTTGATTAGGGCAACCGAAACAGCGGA	2.01
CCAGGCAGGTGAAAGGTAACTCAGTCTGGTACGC	3.13
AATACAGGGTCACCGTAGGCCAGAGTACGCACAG	4.88
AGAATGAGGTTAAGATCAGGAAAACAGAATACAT	2.67
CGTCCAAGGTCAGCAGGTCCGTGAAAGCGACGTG	2.38
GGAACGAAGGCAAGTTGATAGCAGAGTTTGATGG	-0.659
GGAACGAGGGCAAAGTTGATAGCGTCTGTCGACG	4.26
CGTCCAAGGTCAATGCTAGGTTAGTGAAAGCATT	3.27

* * *

# Tested on: LXRa:RXRa (NR concentration 270 nM, RXRa partner concentration 90 nM)
# method: PBM binding z-score (relative to random genomic background probes); higher = stronger binding; sequences stand for … in GC…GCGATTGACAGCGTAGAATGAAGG
Label 1.0 when PBM binding z-score >= 0.7; otherwise 0.0.

item_sequence	category_label
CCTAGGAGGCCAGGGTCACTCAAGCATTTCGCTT	1.0
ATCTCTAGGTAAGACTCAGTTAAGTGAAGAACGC	0.0
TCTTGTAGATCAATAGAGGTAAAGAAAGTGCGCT	0.0
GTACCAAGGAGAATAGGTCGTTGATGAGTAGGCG	0.0
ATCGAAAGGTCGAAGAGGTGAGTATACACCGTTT	1.0
ATACCAAGGTGATCGTGAGGTCGATGATACTAAC	1.0
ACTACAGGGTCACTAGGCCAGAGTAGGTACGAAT	1.0
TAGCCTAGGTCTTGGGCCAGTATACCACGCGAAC	0.0
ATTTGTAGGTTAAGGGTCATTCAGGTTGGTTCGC	1.0
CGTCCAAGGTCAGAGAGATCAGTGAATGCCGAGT	1.0
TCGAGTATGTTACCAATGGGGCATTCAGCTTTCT	0.0
AGAACGCGGGCAATGAGTTGATAGCACGGGTGGC	0.0
TCATATAGGTAAAGGTGAAAGACGAACGATATGA	1.0
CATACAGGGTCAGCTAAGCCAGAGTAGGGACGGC	1.0
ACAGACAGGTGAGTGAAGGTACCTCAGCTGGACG	0.0
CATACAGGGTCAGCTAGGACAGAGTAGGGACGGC	1.0
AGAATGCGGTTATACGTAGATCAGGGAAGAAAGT	0.0
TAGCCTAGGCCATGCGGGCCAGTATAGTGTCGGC	0.0
CGCACTAGGTCAGAACAGGACAGTGAAGGATGAT	1.0
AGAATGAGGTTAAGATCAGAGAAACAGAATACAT	1.0
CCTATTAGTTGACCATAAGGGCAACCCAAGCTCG	0.0
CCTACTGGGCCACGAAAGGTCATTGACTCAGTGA	1.0
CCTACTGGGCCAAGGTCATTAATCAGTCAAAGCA	1.0
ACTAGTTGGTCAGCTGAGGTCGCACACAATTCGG	1.0
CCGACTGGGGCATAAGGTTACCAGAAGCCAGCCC	1.0
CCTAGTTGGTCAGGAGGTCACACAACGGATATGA	1.0

* * *

# Test system: LXRb:RXRa (NR concentration 270 nM, RXRa partner concentration 90 nM)
# method: PBM binding z-score (relative to random genomic background probes); higher = stronger binding; sequences stand for … in GC…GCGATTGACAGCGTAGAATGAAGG
Label Yes when PBM binding z-score >= 2; otherwise No.

item_sequence	category_label
CAAACTAGGTCAAAGGTCAATGTCGAGCCAACCA	Yes
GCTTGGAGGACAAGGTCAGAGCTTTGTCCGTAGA	No
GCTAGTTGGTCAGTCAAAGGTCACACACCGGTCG	Yes
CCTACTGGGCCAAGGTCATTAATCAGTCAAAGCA	Yes
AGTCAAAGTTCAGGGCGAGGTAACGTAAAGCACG	Yes
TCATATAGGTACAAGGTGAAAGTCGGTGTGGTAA	No
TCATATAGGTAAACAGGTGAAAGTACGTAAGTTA	No
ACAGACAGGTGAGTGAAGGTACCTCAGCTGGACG	No
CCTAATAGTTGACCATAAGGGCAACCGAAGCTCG	No
CAGCCTCGGTCAGGGCCAGTATAGGAGGAACGTT	No
CCAAGCAGGCCAATCTGGGTCACTCAAGGCTTGA	No
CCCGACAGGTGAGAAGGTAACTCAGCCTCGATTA	No
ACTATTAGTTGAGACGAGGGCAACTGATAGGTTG	No
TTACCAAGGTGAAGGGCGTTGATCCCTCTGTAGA	No
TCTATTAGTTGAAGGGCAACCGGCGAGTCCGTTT	No
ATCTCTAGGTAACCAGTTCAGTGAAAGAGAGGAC	No
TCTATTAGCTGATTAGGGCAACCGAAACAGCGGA	No
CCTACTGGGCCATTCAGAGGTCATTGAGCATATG	Yes
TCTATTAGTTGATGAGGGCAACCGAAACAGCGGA	No
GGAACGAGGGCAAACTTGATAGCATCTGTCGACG	No
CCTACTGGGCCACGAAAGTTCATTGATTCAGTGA	No
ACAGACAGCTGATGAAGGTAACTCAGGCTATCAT	No
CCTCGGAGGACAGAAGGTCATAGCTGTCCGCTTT	Yes
TGAATGAGGTTATAAGATCAGGGTACGTTGCAAA	No
CCTTACGGGTCACGAGCTTATAGCACGACGAGCG	Yes
